Answer each item with its documented MIC.
# System: E. coli AG100A
# Assay Info: Broth microdilution MIC in CAMHB
# Format: cell-based
# Stated Conditions: Escherichia coli, read-out: Minimum Inhibitory Concentration, E. coli AG100A

[
  {
    "Compound": "CCN1CCN(C(=O)NC(C(=O)N[C@H]2Cc3cccc(C(=O)O)c3OB2O)c2cc(O)cc(O)c2)C(=O)C1=O (mixture of isomers)",
    "MIC": "2 to 4 µg/mL"
  },
  {
    "Compound": "CCN1CCN(C(=O)N[C@H](C(=O)N[C@H]2Cc3cccc(C(=O)O)c3OB2O)c2ccc(C(=O)O)cc2)C(=O)C1=O (single isomer, unassigned)",
    "MIC": "8 to 16 µg/mL"
  }
]

Lab note: need MIC with E. coli AG100A for entry NCCN1CCN(C(=O)N[C@@H](C(=O)N[C@H]2Cc3cccc(C(=O)O)c3OB2O)c2c(Cl)cccc2Cl)C(=O)C1=O (single isomer, unassigned) , please look it up. > 128 µg/mL

----------
# Tested on: P. aeruginosa ATCC 35151
# Assay Info: Broth microdilution MIC in iron-depleted CAMHB (IDM)
# Assay type: cell-based
# Stated Conditions: Pseudomonas aeruginosa, ATCC35151; iron-depleted MHB (IDM); hyper-permeable strain; read-out: Minimum Inhibitory Concentration, P. aeruginosa ATCC 35151
Answer each item with its documented MIC.
Numbers only, in µg/mL.

[
  {
    "Compound": "NC1(CN2CCN(C(=O)N[C@@H](C(=O)N[C@H]3Cc4ccc(F)c(C(=O)O)c4OB3O)c3c(F)cc(O)c(O)c3Cl)C(=O)C2=O)CC1 (single isomer, unassigned)",
    "MIC / µg/mL": 0.25
  }
]

Turning to the following compound.
Item under review: NCCN1CCN(C(=O)N[C@@H](C(=O)N[C@H]2Cc3ccc(F)c(C(=O)O)c3OB2O)c2c(F)cc(O)c(O)c2Cl)C(=O)C1=O (single isomer, unassigned) . Reported MIC? 0.25

----------
# Experimental Target: E. coli K12 PBP3 (Escherichia coli)
# Sequence (P0AD68 1-577): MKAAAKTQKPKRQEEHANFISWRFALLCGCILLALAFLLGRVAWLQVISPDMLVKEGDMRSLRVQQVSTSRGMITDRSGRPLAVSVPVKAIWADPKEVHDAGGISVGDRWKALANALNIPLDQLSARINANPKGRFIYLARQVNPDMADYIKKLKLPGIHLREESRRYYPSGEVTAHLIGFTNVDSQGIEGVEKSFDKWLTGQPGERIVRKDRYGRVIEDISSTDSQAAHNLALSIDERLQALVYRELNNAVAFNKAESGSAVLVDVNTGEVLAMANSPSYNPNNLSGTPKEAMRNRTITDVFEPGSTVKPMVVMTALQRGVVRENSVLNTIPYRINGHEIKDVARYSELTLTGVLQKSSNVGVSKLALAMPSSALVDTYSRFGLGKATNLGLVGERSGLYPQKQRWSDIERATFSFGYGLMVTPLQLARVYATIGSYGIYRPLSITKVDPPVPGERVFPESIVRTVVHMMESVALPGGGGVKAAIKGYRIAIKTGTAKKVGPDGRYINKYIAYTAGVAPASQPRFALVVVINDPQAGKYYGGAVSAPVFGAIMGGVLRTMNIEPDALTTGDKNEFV
# Assay Info: biochemical
Recorded Metric: EC50

[
  {
    "Compound": "NC1(CN2CCN(C(=O)N[C@@H](C(=O)N[C@H]3Cc4cccc(C(=O)O)c4OB3O)c3c(F)cc(O)cc3F)C(=O)C2=O)CC1 (single isomer, unassigned)",
    "Experimental Target": "E. coli K12 PBP3 (Escherichia coli)",
    "EC50": "< 30 µM"
  },
  {
    "Compound": "CCN1CCN(C(=O)NC(C(=O)N[C@H]2Cc3ccc(SCCN)c(C(=O)O)c3OB2O)c2csc(N)n2)C(=O)C1=O (stereo partly drawn)",
    "Experimental Target": "E. coli K12 PBP3 (Escherichia coli)",
    "EC50": "30 to 500 µM"
  },
  {
    "Compound": "CCN1C[C@H](C)N(C(=O)NC(C(=O)N[C@H]2Cc3cccc(C(=O)O)c3OB2O)c2c(F)cc(O)cc2F)C(=O)C1=O (stereo partly drawn)",
    "Experimental Target": "E. coli K12 PBP3 (Escherichia coli)",
    "EC50": "< 30 µM"
  }
]

Record EC50 for all entries; do not skip any.
1. CCN1CCN(C(=O)N[C@H](C(=O)N[C@H]2Cc3cccc(C(=O)O)c3OB2O)c2ccc(C(=O)O)c(Cl)c2)C(=O)C1=O (single isomer, unassigned)
2. O=C(Nc1ccc(O)c(O)c1Cl)NC(C(=O)N[C@H]1Cc2ccc(F)c(C(=O)O)c2OB1O)c1ncc(O)cc1F (stereo partly drawn)

1. < 30 µM
2. 30 to 500 µM

The reported numbers originate from patent US20230114728A1.
